METHOD: Bioavailability of compound upon oral administration in rat
Format: ADME, organism-based
TEST_SETTINGS: in vivo
METRIC: bioavailability

(Q) Tell me its bioavailability given `CCc1cccc(/C=C/[C@H]2[C@@H]3CCCC[C@H]3C[C@H]3C(=O)O[C@H](C)[C@@H]23)n1` as the entry.
(A) < 3%

* * *

METHOD: Bioavailability of compound after oral administration in rat at a dose of 10 mg/kg
Format: ADME, organism-based
TEST_SETTINGS: in vivo
METRIC: bioavailability (%)
Output spec: scalar in %, unitless text.

(Q) Please list bioavailability recorded for the compound `C[C@H]1OC(=O)[C@@H]2C[C@@H]3CCCC[C@H]3[C@H](/C=C/c3ccc(-c4cccc(C(F)(F)F)c4)cn3)[C@H]12`
(A) 30

* * *

METHOD: Maximum plasma concentration after oral administration to rats in 20% hydroxypropyl-beta-cyclodextrin after 4 hours
TEST_SETTINGS: rat
METRIC: Cmax (nM)
Give just the number in nM; leave the unit off.

Please review the entries below; each comes with its answer.
>  <SMILES_STRUCTURE>
C[C@H]1OC(=O)[C@@H]2C[C@@H]3CCCC[C@H]3[C@H](/C=C/c3ccc(-c4ccccc4Cl)cn3)[C@H]12

>  <Cmax [nM]>
1780

$$$$
>  <SMILES_STRUCTURE>
CC(C)c1cccc(-c2ccc(/C=C/[C@H]3[C@@H]4CCCC[C@H]4C[C@H]4C(=O)O[C@H](C)[C@@H]34)nc2)c1

>  <Cmax [nM]>
289

$$$$

(Q) Give the reported value of Cmax for this record: `C[C@H]1OC(=O)[C@@H]2C[C@@H]3CCCC[C@H]3[C@H](/C=C/c3ccc(-c4ccccc4F)cn3)[C@H]12`
(A) 1080

(Q) Supply recorded Cmax for `COc1ccccc1-c1ccc(/C=C/[C@H]2[C@@H]3CCCC[C@H]3C[C@H]3C(=O)O[C@H](C)[C@@H]23)nc1` here.
(A) 419

(Q) Assign Cmax to the following record: `C[C@H]1OC(=O)[C@@H]2C[C@@H]3CCCC[C@H]3[C@H](/C=C/c3ccc(-c4cccc(C(F)(F)F)c4)cn3)[C@H]12`
(A) 2300

(Q) Item `COc1cccc(-c2ccc(/C=C/[C@H]3[C@@H]4CCCC[C@H]4C[C@H]4C(=O)O[C@H](C)[C@@H]34)nc2)c1` : provide Cmax
(A) 20

(Q) Identify measured Cmax corresponding to `Cc1ccccc1-c1ccc(/C=C/[C@H]2[C@@H]3CCCC[C@H]3C[C@H]3C(=O)O[C@H](C)[C@@H]23)nc1`
(A) 1220

(Q) Look up and state reported Cmax for `C[C@H]1OC(=O)[C@@H]2C[C@@H]3CCCC[C@H]3[C@H](/C=C/c3ccc(-c4cccc(Cl)c4)cn3)[C@H]12`
(A) 1460

(Q) Supply reported Cmax belonging to this molecule: `C[C@H]1OC(=O)[C@@H]2C[C@@H]3CCCC[C@H]3[C@H](/C=C/c3ccc(-c4ccccc4C(F)(F)F)cn3)[C@H]12`
(A) 1000

* * *

METHOD: Half life of compound upon iv administration in rat
Type: ADME, organism-based
TEST_SETTINGS: in vivo
METRIC: half-life

(Q) State, in one line, measured half-life of `CCc1cccc(/C=C/[C@H]2[C@@H]3CCCC[C@H]3C[C@H]3C(=O)O[C@H](C)[C@@H]23)n1`
(A) < 1 h

* * *

TARGET_SYSTEM: Proteinase-activated receptor 1 (Homo sapiens, UniProt P25116)
Sequence (P25116 whole entry): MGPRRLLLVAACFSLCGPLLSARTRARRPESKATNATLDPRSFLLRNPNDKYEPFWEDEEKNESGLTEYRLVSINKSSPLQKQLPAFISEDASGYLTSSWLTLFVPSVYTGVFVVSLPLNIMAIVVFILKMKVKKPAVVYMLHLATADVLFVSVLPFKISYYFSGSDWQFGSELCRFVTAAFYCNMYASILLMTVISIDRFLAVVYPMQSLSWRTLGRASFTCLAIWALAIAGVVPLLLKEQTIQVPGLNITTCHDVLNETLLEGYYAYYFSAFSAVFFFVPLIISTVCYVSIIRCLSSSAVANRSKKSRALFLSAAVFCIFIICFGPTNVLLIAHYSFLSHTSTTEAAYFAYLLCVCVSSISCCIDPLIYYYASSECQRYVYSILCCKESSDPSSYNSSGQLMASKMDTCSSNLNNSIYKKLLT
METRIC: IC50 (nM)
Numeric answer only, unit nM assumed.

>  <COMPOUND>
CC(C)Cc1cccc(/C=C/[C@H]2[C@@H]3CCCC[C@H]3C[C@H]3C(=O)O[C@H](C)[C@@H]23)n1 (racemic)

>  <RESULT_UNIT>
nM

>  <IC50>
550

$$$$
>  <COMPOUND>
COc1cccc(-c2ccc(/C=C/[C@H]3[C@@H]4CCCC[C@H]4C[C@H]4C(=O)O[C@H](C)[C@@H]34)nc2)c1

>  <RESULT_UNIT>
nM

>  <IC50>
28

$$$$
>  <COMPOUND>
COc1ccc(-c2ccc(/C=C/[C@H]3[C@@H]4CCCC[C@H]4C[C@H]4C(=O)O[C@H](C)[C@@H]34)nc2)cc1 (racemic)

>  <RESULT_UNIT>
nM

>  <IC50>
204

$$$$

Attention now shifts to the item below.
(Q) Tell us which IC50 value is on record for C[C@H]1OC(=O)[C@@H]2C[C@@H]3CCCC[C@H]3[C@H](/C=C/c3cccc(C4CC4)n3)[C@H]12 (racemic)
(A) 210

* * *

METHOD: Maximum plasma concentration upon oral administration in rat
METRIC: Cmax (nM)
Write down the numeric answer in nM and omit the unit.

(Q) Return Cmax for the following molecule: `C[C@H]1OC(=O)[C@@H]2C[C@@H]3CCCC[C@H]3[C@H](/C=C/c3ccc(-c4cccc(C(F)(F)F)c4)cn3)[C@H]12`
(A) 1160

* * *

METHOD: Area under curve after oral administration to rats in 20% hydroxypropyl-beta-cyclodextrin after 4 hours
TEST_SETTINGS: rat, in vivo
AUC at 4 h listing for selected compounds.
Provide a numeric answer, followed by its unit.

(Q) Give recorded AUC at 4 h. `C[C@H]1OC(=O)[C@@H]2C[C@@H]3CCCC[C@H]3[C@H](/C=C/c3ccc(-c4cccc(C(F)(F)F)c4)cn3)[C@H]12`
(A) 6.12 µM·h

(Q) Give AUC at 4 h for the following compound: `C[C@H]1OC(=O)[C@@H]2C[C@@H]3CCCC[C@H]3[C@H](/C=C/c3ccc(-c4cccc(Cl)c4)cn3)[C@H]12`
(A) 4.11 µM·h

(Q) Answer with reported AUC at 4 h of `C[C@H]1OC(=O)[C@@H]2C[C@@H]3CCCC[C@H]3[C@H](/C=C/c3ccc(-c4ccccc4C(F)(F)F)cn3)[C@H]12`
(A) 2.35 µM·h

* * *

TARGET_SYSTEM: Proteinase-activated receptor 1 (Homo sapiens, UniProt P25116)
METRIC: IC50 (nM)
Report only the number, with the unit nM understood.

>  <MOLECULE>
CCCc1cccc(/C=C/[C@H]2[C@@H]3CCCC[C@H]3C[C@H]3C(=O)O[C@H](C)[C@@H]23)n1 (racemic)

>  <IC50 (nM)>
250

$$$$
>  <MOLECULE>
CC(C)c1cccc(-c2ccc(/C=C/[C@H]3[C@@H]4CCCC[C@H]4C[C@H]4C(=O)O[C@H](C)[C@@H]34)nc2)c1

>  <IC50 (nM)>
19

$$$$
>  <MOLECULE>
C[C@H]1OC(=O)[C@@H]2C[C@@H]3CCCC[C@H]3[C@H](/C=C/c3cccc(Cc4ccccc4)n3)[C@H]12 (racemic)

>  <IC50 (nM)>
900

$$$$

(Q) Fill: IC50 (Proteinase-activated receptor 1 (Homo sapiens, UniProt P25116)) for this molecule CCCCCCc1cccc(/C=C/[C@H]2[C@@H]3CCCC[C@H]3C[C@H]3C(=O)O[C@H](C)[C@@H]23)n1 (racemic)
(A) 3500

(Q) Name the recorded IC50 of C=Cc1cccc(/C=C/[C@H]2[C@@H]3CCCC[C@H]3C[C@H]3C(=O)O[C@H](C)[C@@H]23)n1 (racemic) , assay system Proteinase-activated receptor 1 (Homo sapiens, UniProt P25116).
(A) 150

(Q) Enter measured IC50, system Proteinase-activated receptor 1 (Homo sapiens, UniProt P25116), for the molecule shown: COCc1cccc(/C=C/[C@H]2[C@@H]3CCCC[C@H]3C[C@H]3C(=O)O[C@H](C)[C@@H]23)n1 (racemic)
(A) 850

(Q) Fill in: IC50 on Proteinase-activated receptor 1 (Homo sapiens, UniProt P25116), entry C[C@H]1OC(=O)[C@@H]2C[C@@H]3CCCC[C@H]3[C@H](/C=C/c3ccccn3)[C@H]12 (racemic)
(A) 4000

* * *

METHOD: Half life after intravenous administration in monkey
Assay type: ADME, organism-based
TEST_SETTINGS: cercopithecidae, in vivo
METRIC: half-life (h)
All answers are understood in h, so give the number only.

(Q) Let me know recorded half-life for `C[C@H]1OC(=O)[C@@H]2C[C@@H]3CCCC[C@H]3[C@H](/C=C/c3ccc(-c4cccc(C(F)(F)F)c4)cn3)[C@H]12` , thanks.
(A) 12.4

* * *

Record: pIC50 reported on Proteinase-activated receptor 1 (Homo sapiens, UniProt P25116).
Field pIC50 (float): negative decimal logarithm of the concentration in molar.

# example entries with known answers
>  <COMPOUND>
C[C@H]1OC(=O)[C@@H]2C[C@@H]3CCCC[C@H]3[C@H](/C=C/c3ccc(-c4cccc(C#N)c4)cn3)[C@H]12

>  <METRIC>
pIC50

>  <MEASUREMENT>
7.60

$$$$
>  <COMPOUND>
Cc1ccc(/C=C/[C@H]2[C@@H]3CCCC[C@H]3C[C@H]3C(=O)O[C@H](C)[C@@H]23)nc1 (racemic)

>  <METRIC>
pIC50

>  <MEASUREMENT>
5.96

$$$$
>  <COMPOUND>
CC(C)c1cccc(/C=C/[C@H]2[C@@H]3CCCC[C@H]3C[C@H]3C(=O)O[C@H](C)[C@@H]23)n1 (racemic)

>  <METRIC>
pIC50

>  <MEASUREMENT>
6.14

$$$$
>  <COMPOUND>
C[C@H]1OC(=O)[C@@H]2C[C@@H]3CCCC[C@H]3[C@H](/C=C/c3ccc(-c4ccc(Cl)cc4)cn3)[C@H]12 (racemic)

>  <METRIC>
pIC50

>  <MEASUREMENT>
6.00

$$$$
>  <COMPOUND>
Cc1ccc(-c2ccc(/C=C/[C@H]3[C@@H]4CCCC[C@H]4C[C@H]4C(=O)O[C@H](C)[C@@H]34)nc2)cc1 (racemic)

>  <METRIC>
pIC50

>  <MEASUREMENT>
6.49

$$$$

Now take the following compound into account.
(Q) Read the entry `C[C@H]1OC(=O)[C@@H]2C[C@@H]3CCCC[C@H]3[C@H](/C=C/c3ccc(-c4cccc(Cl)c4)cn3)[C@H]12` and write its reported pIC50.
(A) 8.00
